Values were extracted from ChEMBL document CHEMBL4689842.

- Test system: U2OS
- Assay Name: Multiplex assay against U2OS
- Assay type: toxicity, cell-based
- Details: human, 48 h, 1 µM, compound concentration 1 uM, replicate 1
// boundary case: Population Healthy Nuclei (%) equal to 60% maps to Not fulfilled; strictly smaller maps to Fulfilled

Solved cases below.
# Compound, Assigned Label
records = [
    ("O=C(Nc1ccc(Cl)cc1)Nc1cccc(-c2cccc(N3CCCC3)n2)c1", "Not fulfilled"),
    ("O=C(Cc1ccc(-c2ccc(OCCN3CCOCC3)cc2)cn1)NCc1ccccc1 [TIRBANIBULIN]", "Fulfilled"),
    ("CN1C2CCC1CC(OC(c1ccc(F)cc1)c1ccc(F)cc1)C2.Cl (stereo not given)", "Not fulfilled"),
    ("Cc1cc(C)c(S(=O)(=O)N(Cc2ccc(-c3cccc(S(C)(=O)=O)c3)cc2)Cc2ccc(C(F)(F)F)o2)c(C)c1", "Not fulfilled"),
]

Could you now look at the following compound, please?
Request: I'd appreciate it if you could check whether S=C(NCCCc1c[nH]cn1)NCCCN(Cc1ccc(Cl)c(Cl)c1)c1ccc(Br)cn1 has Population Healthy Nuclei (%) smaller than 60%.
Result: Fulfilled

---

- Tested on: U2OS
- Assay Name: Multiplex assay against U2OS
- Type: toxicity, cell-based
- Details: human, 48 h, 1 µM, compound concentration 1 uM, replicate 1
# cutoff 3% applies to Population Membrane Permeable-Phenotype (%); >= gives met, < gives not met

Solved cases below.
# Molecule, Assigned Label
records = [
    ("Cl.O=c1c2cccn2c2ccccc2n1CCCN1CCC(c2ccc(Cl)cc2)CC1", "not met"),
    ("O=C1NC(=O)C(c2cnc3ccccn23)=C1c1cn2c3c(cc(F)cc13)CN(C(=O)N1CCCCC1)CC2", "met"),
    ("Cc1cc(C)c(S(=O)(=O)N(Cc2ccc(-c3cccc(S(C)(=O)=O)c3)cc2)Cc2ccc(C(F)(F)F)o2)c(C)c1", "not met"),
    ("Cc1ccc(C(=O)Nc2cccc(C(F)(F)F)c2)cc1Nc1nc(-c2cccnc2)nc2c1cnn2C", "met"),
    ("O=C(Nc1ccc(-c2ccnc(Nc3ccc(N4CCOCC4)cc3)n2)cc1)[C@@H]1CCCN1", "met"),
    ("Cc1cn(-c2cc(NC(=O)c3ccc(C)c(Nc4nccc(-c5cccnc5)n4)c3)cc(C(F)(F)F)c2)cn1", "met"),
    ("Cl.Oc1ccc2c3c1O[C@H]1c4[nH]c5c(c4C[C@@]4(O)[C@@H](C2)N(CC2CC2)CC[C@]314)C[C@@]1(O)[C@H]2Cc3ccc(O)c4c3[C@@]1(CCN2CC1CC1)[C@H]5O4", "not met"),
    ("O=C(Nc1ccc(Cl)cc1)Nc1cccc(-c2cccc(N3CCCC3)n2)c1", "not met"),
]

Request: Please tell me: is the molecule O=C1N/C(=N/c2ccccc2F)S/C1=C\c1ccc(C(=O)O)cc1 at or over 3% in terms of Population Membrane Permeable-Phenotype (%)?
Result: not met

Request: Please tell me: is the molecule CCOC(=O)c1c(C)[nH]c2ccc3c(c12)CN1CCc2cc(OC)ccc2C1O3 (stereo not drawn) at or over 3% in terms of Population Membrane Permeable-Phenotype (%)?
Result: not met

Request: Please tell me: is the molecule COc1cc(N2CCN(C)CC2)ccc1Nc1ncc2c(n1)N(C)c1ccccc1C(=O)N2C at or over 3% in terms of Population Membrane Permeable-Phenotype (%)?
Result: met

Request: Please tell me: is the molecule CN1CCC(=C2c3ccccc3CC(=O)c3sccc32)CC1.O=C(O)/C=C/C(=O)O [KETOTIFEN FUMARATE] at or over 3% in terms of Population Membrane Permeable-Phenotype (%)?
Result: met

Request: Please tell me: is the molecule CCOc1cc(C(=O)N2CCC(N3CCN(C)CC3)CC2)ccc1Nc1ncc2c(n1)N(C1CCCC1)c1ccccc1C(=O)N2C at or over 3% in terms of Population Membrane Permeable-Phenotype (%)?
Result: not met

Request: Please tell me: is the molecule S=C(NCCCc1c[nH]cn1)NCCCN(Cc1ccc(Cl)c(Cl)c1)c1ccc(Br)cn1 at or over 3% in terms of Population Membrane Permeable-Phenotype (%)?
Result: met

Request: Please tell me: is the molecule CN1C2CCC1CC(OC(c1ccc(F)cc1)c1ccc(F)cc1)C2.Cl (stereo not drawn) at or over 3% in terms of Population Membrane Permeable-Phenotype (%)?
Result: not met

Request: Please tell me: is the molecule CCN1CCN(Cc2ccc(Nc3ncc(F)c(-c4cc(F)c5nc(C)n(C(C)C)c5c4)n3)nc2)CC1.CS(=O)(=O)O at or over 3% in terms of Population Membrane Permeable-Phenotype (%)?
Result: met

Request: Please tell me: is the molecule CNc1cc(Oc2cc(C(=O)Nc3cc(N4CCN(C)CC4)cc(C(F)(F)F)c3)ccc2C)ncn1 at or over 3% in terms of Population Membrane Permeable-Phenotype (%)?
Result: met

---

- Test system: Fibroblast
- Assay Name: Multiplex assay against human fibroblast
- Type: toxicity, cell-based
- Details: 24 h, 10 µM, compound concentration 10 uM, replicate 2
Attribute Measured: Population Fragmented Nuclei (%)
Quick reminder: number only, in %, skip the unit.

Study these solved cases before continuing.
# Compound, Value Measured
measured = [
    ("CCn1c(=O)c(-c2ccc(-c3cncs3)cc2Cl)cc2cnc(Nc3ccc(N4CCN(C)CC4)cc3)nc21", 14),
    ("CCN1CCN(Cc2ccc(Nc3ncc(F)c(-c4cc(F)c5nc(C)n(C(C)C)c5c4)n3)nc2)CC1.CS(=O)(=O)O", 27),
    ("COCC(=O)NC/C=C/c1ccc2ncnc(Nc3ccc(Oc4ccc(C)nc4)c(C)c3)c2c1 [CP-724714]", 16),
    ("COc1cc2ncnc(Nc3ccc(F)c(Cl)c3)c2cc1NC(=O)/C=C/CN1CCCCC1 [DACOMITINIB ANHYDROUS]", 53),
    ("CN1C2CCC1CC(OC(c1ccc(F)cc1)c1ccc(F)cc1)C2.Cl (configuration not stated)", 16),
    ("CCOc1cc2ncc(C#N)c(Nc3ccc(OCc4ccccn4)c(Cl)c3)c2cc1NC(=O)/C=C/CN(C)C [NERATINIB]", 36),
    ("CCc1cccc(CC)c1NC(=O)c1nn(C)c2c1CCc1cnc(Nc3ccc(N4CCN(C)CC4)cc3OC)nc1-2", 60),
    ("COc1cc(N2CCN(C)CC2)ccc1Nc1ncc2c(n1)N(C)c1ccccc1C(=O)N2C", 11),
]

Request: Any idea what its Population Fragmented Nuclei (%) is? The compound is S=C(NCCCc1c[nH]cn1)NCCCN(Cc1ccc(Cl)c(Cl)c1)c1ccc(Br)cn1
Result: 12

Request: Any idea what its Population Fragmented Nuclei (%) is? The compound is CCCS(=O)(=O)c1nc(NC2CC2)cc(-c2ccc3c(ccn3C3CC(C)(C)NC(C)(C)C3)c2)n1
Result: 73

Request: Any idea what its Population Fragmented Nuclei (%) is? The compound is CCN1CCN(c2ccc(Nc3cc(N(C)C(=O)Nc4c(Cl)c(OC)cc(OC)c4Cl)ncn3)cc2)CC1 [INFIGRATINIB]
Result: 56

Request: Any idea what its Population Fragmented Nuclei (%) is? The compound is C=CCn1c(=O)c2cnc(Nc3ccc(N4CCN(C)CC4)cc3)nc2n1-c1cccc(C(C)(C)O)n1 [ADAVOSERTIB]
Result: 61

Request: Any idea what its Population Fragmented Nuclei (%) is? The compound is CN(C)C(=O)C(CCN1CCC(O)(c2ccc(Cl)cc2)CC1)(c1ccccc1)c1ccccc1.Cl [LOPERAMIDE HYDROCHLORIDE]
Result: 10

Request: Any idea what its Population Fragmented Nuclei (%) is? The compound is Cc1cn(-c2cc(NC(=O)c3ccc(C)c(Nc4nccc(-c5cccnc5)n4)c3)cc(C(F)(F)F)c2)cn1 [NILOTINIB]
Result: 12

Request: Any idea what its Population Fragmented Nuclei (%) is? The compound is COc1ccc(-c2ccc3c(N4CCOCC4)nc(N4C[C@@H](C)O[C@@H](C)C4)nc3n2)cc1CO [Ku-0063794]
Result: 78

Request: Any idea what its Population Fragmented Nuclei (%) is? The compound is O=C(Nc1ccc(-c2ccnc(Nc3ccc(N4CCOCC4)cc3)n2)cc1)[C@@H]1CCCN1
Result: 18

Request: Any idea what its Population Fragmented Nuclei (%) is? The compound is NC(=O)c1cccc(-c2cc(Nc3ccc(OC(F)(F)F)cc3)ncn2)c1
Result: 50

---

- Tested on: HEK-293T
- Assay Name: Incucyte cell viability with HEK293T; note: filed as whole numbers so only -1 and 0 and 1 occur
- Assay type: toxicity, cell-based
- Details: human, 24 h, 10 µM, compound concentration 10 uM, replicate number 1, timepoint 24 hours
Attribute Measured: Growth Rate
Give the figure only, with no unit attached.

# Compound, Target System, Growth Rate
measured = [
    ("Cc1cnc(Nc2ccc(F)cc2Cl)nc1-c1c[nH]c(C(=O)N[C@H](CO)c2cccc(Cl)c2)c1", "HEK-293T", 0),
    ("O=C1NCN(c2ccccc2)C12CCN(CC1COc3ccccc3O1)CC2 (centres undefined)", "HEK-293T", 0),
    ("CN1C2CCC1CC(OC(c1ccc(F)cc1)c1ccc(F)cc1)C2.Cl (centres undefined)", "HEK-293T", 0),
]

Request: Any idea what its Growth Rate is? The compound is O=C(c1ccc(C(=O)N2CCC(N3CCCC3)CC2)c(Nc2ccccc2)c1)N1CCC(N2CCCC2)CC1
Result: 1

Request: Any idea what its Growth Rate is? The compound is Cl.O=c1c2cccn2c2ccccc2n1CCCN1CCC(c2ccc(Cl)cc2)CC1
Result: 0

Request: Any idea what its Growth Rate is? The compound is O=C1N/C(=N/c2ccccc2F)S/C1=C\c1ccc(C(=O)O)cc1
Result: 1

Request: Any idea what its Growth Rate is? The compound is CN([C@@H](Cc1ccc(OS(=O)(=O)c2cccc3cnccc23)cc1)C(=O)N1CCN(c2ccccc2)CC1)S(=O)(=O)c1cccc2cnccc12
Result: 0

Request: Any idea what its Growth Rate is? The compound is CCOc1cc2ncc(C#N)c(Nc3ccc(OCc4ccccn4)c(Cl)c3)c2cc1NC(=O)/C=C/CN(C)C
Result: 0

Request: Any idea what its Growth Rate is? The compound is O=C(Nc1ccc(-c2ccnc(Nc3ccc(N4CCOCC4)cc3)n2)cc1)[C@@H]1CCCN1
Result: 0
